assay-readout: boiling point (°C)
Quick reminder: number only, in °C, skip the unit.

INSERT INTO measurements (compound, assay_readout, readout_units, measured_result) VALUES
  ('C[Si](C)(C)CCCO', 'boiling point', '°C', 141);

Entry under review: CCCCCSC . Reported boiling point?
145

Entry under review: c1ccc2c(c1)cnc1ccccc12 . Reported boiling point?
349

Entry under review: CCCCCCCCCCCCCCCCCCCCCCCCCCCCCC . Reported boiling point?
450

Entry under review: Cc1cn[nH]c1 . Reported boiling point?
206

Entry under review: CCN(CC)CCO . Reported boiling point?
163

Entry under review: Oc1cccc(Nc2ccccc2)c1 . Reported boiling point?
340

Entry under review: C#CC(O)(C=CCl)CC (stereo unspecified) . Reported boiling point?
174

Entry under review: Nc1cc(Cl)ccc1Cl . Reported boiling point?
251

Entry under review: CCC1CCCC1 . Reported boiling point?
104

Entry under review: O=C(Cl)C(=O)Cl . Reported boiling point?
63.5

Entry under review: O=C(O)C(F)(F)C(F)F . Reported boiling point?
134

Entry under review: NC1CCC(CC2CCC(N)CC2)CC1 (stereo unspecified) . Reported boiling point?
320

Entry under review: CCCCCCCCCCCCCc1ccccc1 . Reported boiling point?
346

Entry under review: Cc1ncc[nH]1 . Reported boiling point?
267

Entry under review: CCC(Cc1ccccc1)c1ccccc1 (stereo unspecified) . Reported boiling point?
290

Entry under review: CC(=O)O[C@@H]1C[C@H](C)CC[C@H]1C(C)C (racemic) . Reported boiling point?
228

Entry under review: Nc1ccc(-c2ccccc2)cc1 . Reported boiling point?
302

Entry under review: O=C(O)CCCCCCBr . Reported boiling point?
280

Entry under review: CCO[Si](CC)(OCC)OCC . Reported boiling point?
158

Entry under review: CC(C)CCCCCCC=O . Reported boiling point?
197

Entry under review: Clc1cccc2ccccc12 . Reported boiling point?
259

---

boiling point values, listed per item
Quick reminder: number only, in °C, skip the unit.

Some compounds with known boiling point results, for comparison:
INSERT INTO assay_data (compound, assay_readout, measured_result) VALUES
  ('CCCC(C)C(C)C (centres undefined)', 'boiling point', 116),
  ('Fc1cccc(C(F)(F)F)c1', 'boiling point', 102),
  ('CC(N)CO (centres undefined)', 'boiling point', 174),
  ('COC(=O)CC(=O)OC', 'boiling point', 181),
  ('FC(F)(F)c1ccc(Cl)nc1', 'boiling point', 153);

Entry under review: FC(F)(F)c1ccc(Cl)c(Cl)c1 . Reported boiling point?
174

Entry under review: CCOC(CCCN)OCC . Reported boiling point?
196

Entry under review: CC(=O)CC(=O)OC(C)C . Reported boiling point?
186

Entry under review: Cc1nnc(C)s1 . Reported boiling point?
202

---

log10 biotransformation half-life (days) values, listed per item
- condition-set: fish
Provide a numeric answer; units are not to be included.

Some compounds with known log10 biotransformation half-life (days) results, for comparison:
INSERT INTO assay_data (compound, assay_readout, measured_result) VALUES
  ('Clc1ccc(-c2cc(Cl)cc(Cl)c2Cl)cc1', 'log10 biotransformation half-life (days)', 2.43),
  ('Oc1cccc(Br)c1', 'log10 biotransformation half-life (days)', -0.95),
  ('c1ccc2c(c1)-c1cccc3cccc-2c13', 'log10 biotransformation half-life (days)', -0.02),
  ('ClCC(Cl)Cl', 'log10 biotransformation half-life (days)', -1.01);

Entry under review: OC(c1ccc(Cl)cc1)(c1ccc(Cl)cc1)C(Cl)(Cl)Cl . Reported log10 biotransformation half-life (days)?
1.99

Entry under review: CCC(C)c1cccc(C(C)CC)c1O (centres undefined) . Reported log10 biotransformation half-life (days)?
-0.22

Entry under review: Cc1ccc([N+](=O)[O-])cc1O . Reported log10 biotransformation half-life (days)?
-1.24

Entry under review: CCCC1COC(Cn2cncn2)(c2ccc(Cl)cc2Cl)O1 (centres undefined) . Reported log10 biotransformation half-life (days)?
0.7

Entry under review: CCCCCCCCc1ccc2ccc3cccc4ccc1c2c34 . Reported log10 biotransformation half-life (days)?
1.26

Entry under review: ClC(Cl)=C(c1ccc(Cl)cc1)c1ccc(Cl)cc1 . Reported log10 biotransformation half-life (days)?
1.71

Entry under review: Clc1cc(Cl)c(Oc2cc(Cl)c(Cl)c(Cl)c2Cl)cc1Cl . Reported log10 biotransformation half-life (days)?
1.97

Entry under review: Nc1ccc(Cl)c(Cl)c1 . Reported log10 biotransformation half-life (days)?
-1.09

Entry under review: C=C(C)CCCCCCCCCCC . Reported log10 biotransformation half-life (days)?
0.73

Entry under review: Brc1cc(Br)c(Oc2c(Br)cc(Br)c(Br)c2Br)cc1Br . Reported log10 biotransformation half-life (days)?
1.65

---

- condition-set: fish
assay-readout: log10 biotransformation half-life (days)
Provide a numeric answer; units are not to be included.

Some compounds with known log10 biotransformation half-life (days) results, for comparison:
INSERT INTO results (compound, measured_result) VALUES
  ('Brc1ccc(Oc2ccc(Br)c(Br)c2Br)c(Br)c1', 1.34),
  ('ClCC(Br)CBr (stereo not drawn)', -1.14),
  ('Cc1cc(C)c(O)c(C)c1', -1.3),
  ('Nc1ccccc1Cl', -0.61),
  ('CCC(C)(NC(=O)c1cc(Cl)c(C)c(Cl)c1)C(=O)CCl (stereo not drawn)', 0.16),
  ('C=CC1CC=CCC1 (stereo not drawn)', -0.41),
  ('CC(C)(C)c1cc(-n2nc3ccccc3n2)c(O)c(C(C)(C)C)c1', 0.89),
  ('ClCCl', -0.51),
  ('CCCCCCC(C)OC(=O)COc1nc(F)c(Cl)c(N)c1Cl (stereo not drawn)', -0.61),
  ('Clc1ccccc1', -1.02);

Entry under review: ClC1=C(Cl)[C@]2(Cl)[C@@H]3[C@@H]4C[C@@H]([C@H]5O[C@@H]45)[C@@H]3[C@@]1(Cl)C2(Cl)Cl (single isomer, unassigned) . Reported log10 biotransformation half-life (days)?
1.65

Entry under review: Cc1cc2cc3cc(C)c(C)cc3cc2cc1C . Reported log10 biotransformation half-life (days)?
0.59

Entry under review: Clc1ccc(Cl)c(-c2ccccc2)c1 . Reported log10 biotransformation half-life (days)?
2.38

---

Doc: threshold 3 (exclusive). Items with log10 Koc (L/kg) beneath it return rule met; others return rule not met.

Example cases with answers are listed next.
INSERT INTO results (compound, cat) VALUES
  ('CCCOP(=S)(OCCC)SCC(=O)N1CCCCC1C (centres undefined)', 'rule not met'),
  ('Nc1ccc(/N=N/c2ccccc2)cc1', 'rule met'),
  ('O=C(O)c1ccc([N+](=O)[O-])c([N+](=O)[O-])c1', 'rule met'),
  ('Clc1ccc(Cl)c(Cl)c1Cl', 'rule not met'),
  ('CCc1cccc(C)c1N(C(=O)CCl)C(C)COC (centres undefined)', 'rule met'),
  ('CCOP(=S)(OCC)Oc1ccc([N+](=O)[O-])cc1', 'rule not met');

Confirm or reject: log10 Koc (L/kg) of CC(=O)c1ccc(-c2ccccc2)cc1 lies strictly below 3
rule not met

Confirm or reject: log10 Koc (L/kg) of CCCCCCCCCc1ccc(OP(=O)(Oc2ccccc2)Oc2ccccc2)cc1 lies strictly below 3
rule not met

Confirm or reject: log10 Koc (L/kg) of CCCCCC(=O)OCC lies strictly below 3
rule met

Confirm or reject: log10 Koc (L/kg) of CCOC(=O)c1ccc(O)cc1 lies strictly below 3
rule met

Confirm or reject: log10 Koc (L/kg) of Clc1cc(Cl)c(-c2ccc(Cl)c(Cl)c2Cl)cc1Cl lies strictly below 3
rule not met

Confirm or reject: log10 Koc (L/kg) of N#Cc1c(Cl)c(Cl)c(Cl)c(C#N)c1Cl lies strictly below 3
rule not met

Confirm or reject: log10 Koc (L/kg) of Clc1ccccc1Cl lies strictly below 3
rule met

Confirm or reject: log10 Koc (L/kg) of C#CCOS(=O)OC1CCCCC1Oc1ccc(C(C)(C)C)cc1 (centres undefined) lies strictly below 3
rule not met

---

assay-readout: boiling point (°C)
Quick reminder: number only, in °C, skip the unit.

INSERT INTO results (entry_smiles, measured_result) VALUES
  ('Nc1cc(Cl)cc(Cl)c1', 261);

Entry under review: CCOCC . Reported boiling point?
34.6

Entry under review: O=C=C=C=O . Reported boiling point?
6.8

Entry under review: O=C(O)C1CCCCCC1 . Reported boiling point?
259

---

assay-readout: melting point (°C)
Quick reminder: number only, in °C, skip the unit.

Some compounds with known melting point results, for comparison:
INSERT INTO results (entry_smiles, measured_result) VALUES
  ('CCC(C)(C)C(C)(C)C', -9.8),
  ('COc1ccc(OC)c(N)c1', 82.5),
  ('CCN(CC)c1ccc(/N=N/c2ccccc2)cc1', 97.5);

Entry under review: NC(=O)c1ccccc1[N+](=O)[O-] . Reported melting point?
177

Entry under review: C=COCCCCCCCCCC . Reported melting point?
-41

Entry under review: C=CCc1cc2c(c(OC)c1OC)OCO2 . Reported melting point?
29.5

Entry under review: NS(=O)(=O)c1ccc(SCCCO)c(F)c1 . Reported melting point?
110

Entry under review: O=C(OCc1ccccc1)c1sc(Cl)nc1C(F)(F)F . Reported melting point?
52
